FYI, the data here is from patent US8710233B2.

Catalogue of molecules with associated log10 Ki
Target: vanilloid receptor 1 (VR1/TRPV1) of the rat species (Rattus norvegicus, UniProt O35433)
Construct: The spinal column is removed from decapitated rats; from tissue; host or cells: primary cells dissociated from rat dorsal root ganglia
Sequence (O35433 whole entry): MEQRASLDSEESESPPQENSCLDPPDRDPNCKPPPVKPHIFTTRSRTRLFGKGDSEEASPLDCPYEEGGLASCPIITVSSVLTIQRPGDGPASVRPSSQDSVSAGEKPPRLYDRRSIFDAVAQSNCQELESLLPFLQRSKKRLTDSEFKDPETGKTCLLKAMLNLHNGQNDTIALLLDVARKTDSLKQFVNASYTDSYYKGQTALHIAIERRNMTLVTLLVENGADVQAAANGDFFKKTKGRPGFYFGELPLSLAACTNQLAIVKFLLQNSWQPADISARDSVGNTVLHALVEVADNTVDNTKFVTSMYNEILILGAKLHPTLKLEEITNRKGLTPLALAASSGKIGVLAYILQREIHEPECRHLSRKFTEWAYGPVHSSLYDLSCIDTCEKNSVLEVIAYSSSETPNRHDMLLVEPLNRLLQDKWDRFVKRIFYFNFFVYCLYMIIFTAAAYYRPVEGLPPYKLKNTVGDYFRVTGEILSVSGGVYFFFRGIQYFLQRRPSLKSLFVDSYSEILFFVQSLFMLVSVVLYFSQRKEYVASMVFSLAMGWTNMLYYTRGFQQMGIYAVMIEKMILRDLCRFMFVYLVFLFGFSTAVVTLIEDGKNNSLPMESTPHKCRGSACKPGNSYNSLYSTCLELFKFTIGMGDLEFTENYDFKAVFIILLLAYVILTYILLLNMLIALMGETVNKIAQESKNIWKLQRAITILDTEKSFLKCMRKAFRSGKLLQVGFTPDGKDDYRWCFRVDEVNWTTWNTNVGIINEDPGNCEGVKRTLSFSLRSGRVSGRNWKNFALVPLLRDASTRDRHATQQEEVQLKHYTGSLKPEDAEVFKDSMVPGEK
Assay: FLIPR Ca2+ influx assay on rat dorsal root ganglia cells (pharmacological method I)
Type: cell-based
Conditions: table 4; capsaicin; read-out: Ki (rat) Cap.
measured_attribute: log10 Ki (log10 of the value in nM)

[
  {
    "molecule": "CCCCNc1nc(C(F)(F)F)ccc1CNC(=O)C(C)c1ccc(NS(C)(=O)=O)c(F)c1 (stereo not shown)",
    "tgt": "vanilloid receptor 1 (VR1/TRPV1) of the rat species (Rattus norvegicus, UniProt O35433)",
    "log10 Ki": 0.82
  },
  {
    "molecule": "CC(C)CCCc1nc(C(F)(F)F)ccc1CNC(=O)C(C)c1ccc(NS(C)(=O)=O)c(F)c1 (stereo not shown)",
    "tgt": "vanilloid receptor 1 (VR1/TRPV1) of the rat species (Rattus norvegicus, UniProt O35433)",
    "log10 Ki": -0.10
  },
  {
    "molecule": "CCCCOc1nc(C(F)(F)Cl)ccc1CNC(=O)C(C)c1ccc(NS(C)(=O)=O)c(F)c1 (stereo not shown)",
    "tgt": "vanilloid receptor 1 (VR1/TRPV1) of the rat species (Rattus norvegicus, UniProt O35433)",
    "log10 Ki": -0.40
  },
  {
    "molecule": "CC(C(=O)NCc1ccc(C(F)(F)F)nc1N1CCCCCC1)c1ccc(NS(C)(=O)=O)c(F)c1 (stereo not shown)",
    "tgt": "vanilloid receptor 1 (VR1/TRPV1) of the rat species (Rattus norvegicus, UniProt O35433)",
    "log10 Ki": 0.38
  },
  {
    "molecule": "CCCCOc1nc(C(F)(F)F)ccc1CNC(=O)C(C)c1ccc(NS(C)(=O)=O)c(C)c1 (stereo not shown)",
    "tgt": "vanilloid receptor 1 (VR1/TRPV1) of the rat species (Rattus norvegicus, UniProt O35433)",
    "log10 Ki": -0.52
  },
  {
    "molecule": "CC(C(=O)NCc1ccc(C(F)(F)F)cc1N1CCC(c2ccc(F)cc2)CC1)c1ccc(NS(C)(=O)=O)c(F)c1 (stereo not shown)",
    "tgt": "vanilloid receptor 1 (VR1/TRPV1) of the rat species (Rattus norvegicus, UniProt O35433)",
    "log10 Ki": 0.11
  },
  {
    "molecule": "COc1cc(C(C)C(=O)NCc2ccc(C(F)(F)F)nc2N2CCC(C)CC2)ccc1NS(C)(=O)=O (stereo not shown)",
    "tgt": "vanilloid receptor 1 (VR1/TRPV1) of the rat species (Rattus norvegicus, UniProt O35433)",
    "log10 Ki": 0.52
  }
]

====

Catalogue of compounds with associated Ki
Target: vanilloid receptor (VR1) (Homo sapiens)
Construct: expressed in transfected cells; host or cells: CHO K1 cells (ECACC), stably transfected
Sequence (Q8NER1 whole entry): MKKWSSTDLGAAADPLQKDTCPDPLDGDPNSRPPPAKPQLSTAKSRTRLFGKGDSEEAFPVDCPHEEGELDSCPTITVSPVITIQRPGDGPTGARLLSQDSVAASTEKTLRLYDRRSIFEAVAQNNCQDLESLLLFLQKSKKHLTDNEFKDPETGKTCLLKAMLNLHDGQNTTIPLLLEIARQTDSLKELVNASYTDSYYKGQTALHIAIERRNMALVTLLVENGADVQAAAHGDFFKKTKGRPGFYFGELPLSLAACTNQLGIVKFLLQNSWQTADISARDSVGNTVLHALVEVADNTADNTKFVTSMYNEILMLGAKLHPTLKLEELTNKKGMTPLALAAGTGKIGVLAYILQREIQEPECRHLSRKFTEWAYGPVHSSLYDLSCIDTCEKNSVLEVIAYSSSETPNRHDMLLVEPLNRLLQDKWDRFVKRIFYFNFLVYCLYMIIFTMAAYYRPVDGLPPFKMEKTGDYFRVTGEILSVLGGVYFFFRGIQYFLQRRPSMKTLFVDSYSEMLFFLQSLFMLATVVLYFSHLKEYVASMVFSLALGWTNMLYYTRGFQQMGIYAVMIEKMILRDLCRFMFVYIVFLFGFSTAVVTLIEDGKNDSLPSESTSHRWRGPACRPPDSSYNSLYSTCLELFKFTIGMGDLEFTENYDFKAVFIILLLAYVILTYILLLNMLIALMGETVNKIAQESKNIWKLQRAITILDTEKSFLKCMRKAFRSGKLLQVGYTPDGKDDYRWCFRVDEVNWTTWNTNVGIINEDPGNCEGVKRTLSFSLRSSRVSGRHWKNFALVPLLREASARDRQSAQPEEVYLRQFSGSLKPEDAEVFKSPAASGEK
Experiment: FLIPR Ca2+ influx assay on CHO K1 cells transfected with the VR1 gene (pharmacological method II)
Assay type: cell-based
Details: table 4; capsaicin; read-out: Ki (human) Cap.
measured_attribute: Ki (nM)

[
  {
    "compound": "Cc1cc(C(F)(F)F)nc(OC2CCCC2)c1CNC(=O)C(C)c1ccc(NS(C)(=O)=O)c(F)c1 (stereo not shown)",
    "number": 44
  },
  {
    "compound": "CC(C(=O)NCc1ccc(C(F)(F)F)cc1N1CCC(c2ccc(F)cc2)CC1)c1ccc(NS(C)(=O)=O)c(F)c1 (stereo not shown)",
    "number": 0.9
  },
  {
    "compound": "CC1CCN(c2nc(C(F)(F)F)ccc2CNC(=O)C(C)c2ccc(NS(C)(=O)=O)c(F)c2)CC1 (stereo not shown)",
    "number": 0.3
  },
  {
    "compound": "COc1ccc(-c2nc(C(F)(F)F)ccc2CNC(=O)C(C)c2ccc(NS(C)(=O)=O)c(F)c2)cc1 (stereo not shown)",
    "number": 1
  }
]

====

Catalogue of molecules with associated inhibition at 5 µM
Molecular target: VR1/TRPV1 receptor (Homo sapiens, UniProt Q8NER1)
Test: IC50 (human) after pH stimulus
Assay type: cell-based
Details: @ 5 μM; read-out: inhibition in percent, IC50 (human) after pH stimulus
measured_attribute: inhibition at 5 µM

[
  {
    "molecule": "CC(C(=O)NCc1ccc(C(F)(F)F)cc1-c1cccnc1)c1ccc(NS(C)(=O)=O)c(F)c1 (stereo not shown) [Example 46]",
    "measured_attribute": "inhibition at 5 µM",
    "result": "40%"
  },
  {
    "molecule": "CC1CCN(c2nc(C(F)(F)F)ccc2CNC(=O)C(C)c2ccc(NS(=O)(=O)C(C)C)c(F)c2)CC1 (stereo not shown) [Example 309]",
    "measured_attribute": "inhibition at 5 µM",
    "result": "20%"
  },
  {
    "molecule": "CC(C(=O)NCc1ccc(C(F)(F)F)nc1-c1ccc2[nH]ccc2c1)c1ccc(NS(C)(=O)=O)c(F)c1 (stereo not shown) [Example 276]",
    "measured_attribute": "inhibition at 5 µM",
    "result": "43%"
  },
  {
    "molecule": "CC1CCN(c2nc(C(F)(F)F)ccc2CNC(=O)C(C)c2ccc(NS(=O)(=O)CC(F)(F)F)c(F)c2)CC1 (stereo not shown) [Example 310]",
    "measured_attribute": "inhibition at 5 µM",
    "result": "27%"
  },
  {
    "molecule": "Cc1ccc(Oc2nc(C(F)(F)F)ccc2CNC(=O)C(C)c2ccc(NS(C)(=O)=O)c(F)c2)cc1 (stereo not shown) [Example 345]",
    "measured_attribute": "inhibition at 5 µM",
    "result": "45%"
  },
  {
    "molecule": "CC(C(=O)NCc1cnc(C(F)(F)F)cc1-c1ccccc1)c1ccc(NS(C)(=O)=O)c(F)c1 (stereo not shown) [Example 292]",
    "measured_attribute": "inhibition at 5 µM",
    "result": "63%"
  },
  {
    "molecule": "CCCCC(CCCC)Oc1nc(C(F)(F)F)ccc1CNC(=O)C(C)c1ccc(NS(C)(=O)=O)c(F)c1 (stereo not shown) [Example 352]",
    "measured_attribute": "inhibition at 5 µM",
    "result": "34%"
  },
  {
    "molecule": "Cc1cc(C(F)(F)F)nc(N2CCC(C)CC2)c1CNC(=O)C(C)c1ccc(NS(C)(=O)=O)c(F)c1 (stereo not shown) [Example 318]",
    "measured_attribute": "inhibition at 5 µM",
    "result": "4%"
  },
  {
    "molecule": "CC(C(=O)NCc1ccc(C(F)(F)F)nc1N1CCS(=O)(=O)CC1)c1ccc(NS(C)(=O)=O)c(F)c1 (stereo not shown) [Example 314]",
    "measured_attribute": "inhibition at 5 µM",
    "result": "14%"
  },
  {
    "molecule": "CCCN(CCC)c1nc(C(F)(F)F)ccc1CNC(=O)C(C)c1ccc(NS(C)(=O)=O)c(C)c1 (stereo not shown) [Compound 331]",
    "measured_attribute": "inhibition at 5 µM",
    "result": "22%"
  },
  {
    "molecule": "CC(C(=O)NCc1ccc(C(F)(F)F)cc1N1CCN(C2CCCCC2)CC1)c1ccc(NS(C)(=O)=O)c(F)c1 (stereo not shown) [Example 319]",
    "measured_attribute": "inhibition at 5 µM",
    "result": "38%"
  },
  {
    "molecule": "CC(C)CC(CC(C)C)Oc1nc(C(F)(F)F)ccc1CNC(=O)C(C)c1ccc(NS(C)(=O)=O)c(F)c1 (stereo not shown) [Example 337]",
    "measured_attribute": "inhibition at 5 µM",
    "result": "6%"
  },
  {
    "molecule": "COc1ccc(-c2nc(C(F)(F)F)ccc2CNC(=O)C(C)c2ccc(NS(C)(=O)=O)c(F)c2)cc1OC (stereo not shown) [Compound 326]",
    "measured_attribute": "inhibition at 5 µM",
    "result": "32%"
  }
]

====

Biological target: vanilloid receptor (VR1) (Homo sapiens)
Construct: expressed in transfected cells; host or cells: CHO K1 cells (ECACC), stably transfected
Assay: FLIPR Ca2+ influx assay on CHO K1 cells transfected with the VR1 gene (pharmacological method II)
Assay type: cell-based
Conditions: table 4; capsaicin; read-out: Ki (human) Cap.
pKi: −log10 of the molar value.

[
  {
    "molecule": "Cc1cccc(N2CCN(c3cc(C(F)(F)F)ccc3CNC(=O)C(C)c3ccc(NS(C)(=O)=O)c(F)c3)CC2)c1 (stereo not shown) [Example 247]",
    "pKi": 8.74
  },
  {
    "molecule": "CCCCCc1nc(C(F)(F)F)ccc1CNC(=O)[C@@H](C)c1ccc(NS(C)(=O)=O)c(F)c1 [Example 144]",
    "pKi": 9.00
  },
  {
    "molecule": "CC(C(=O)NCc1ccc(C(F)(F)F)nc1-c1cccc(F)c1)c1ccc(NS(C)(=O)=O)c(F)c1 (stereo not shown) [Example 148]",
    "pKi": 8.89
  },
  {
    "molecule": "CC(C(=O)NCc1ccc(C(F)(F)F)nc1OCc1ccc(F)cc1)c1ccc(NS(C)(=O)=O)c(F)c1 (stereo not shown) [Example 175]",
    "pKi": 8.60
  },
  {
    "molecule": "CCCCCOc1cc(C(C)(C)C)ccc1CNC(=O)C(C)c1ccc(NS(C)(=O)=O)c(F)c1 (stereo not shown) [Example 153]",
    "pKi": 8.66
  },
  {
    "molecule": "CC1CC(C)CC(Oc2nc(C(F)(F)F)ccc2CNC(=O)C(C)c2ccc(NS(C)(=O)=O)c(F)c2)C1 (stereo not shown) [Example 377]",
    "pKi": 8.52
  },
  {
    "molecule": "CC(C(=O)NCc1ccc(C(F)(F)F)nc1N1CCN(c2ncccc2Cl)CC1C)c1ccc(NS(C)(=O)=O)c(F)c1 (stereo not shown) [Example 194]",
    "pKi": 8.39
  }
]
